# assay-name: Maximum solubility of UV-screening agents in compound (B)/isododecane mixtures
# Format: physicochemical
# measurement-setup: in compound (B1) at 50% by weight in isododecane; sonication 45° C. 30 minutes, stable two months at room temperature
quantity-name: Maximum solubility of the UV-screening agent (w/w %)

1. CCCCC(CC)COc1ccc(-c2nc(-c3ccc(OC)cc3)nc(-c3ccc(OCC(CC)CCCC)cc3O)n2)c(O)c1 (centres unmarked)
2. CCCCCCCCOC(=O)/C(C#N)=C\C=C\N(CC)CC
q: Between the two listed entries 1 and 2 , which has its Maximum solubility of the UV-screening agent at the higher number? Identify your pick by its label.
a: 1

I. CCCCCCCCOC(=O)/C(C#N)=C\C=C\N(CCO)CCO
II. COc1ccc(C(=O)CC(=O)c2ccc(C(C)(C)C)cc2)cc1
q: Between the two listed entries I and II , which has its Maximum solubility of the UV-screening agent at the higher number? Identify your pick by its label.
a: II

---

# assay-name: Maximum solubility of UV-screening agents in compound (B)/isododecane mixtures
# Type: physicochemical
# measurement-setup: in isododecane alone (B0), reference; sonication 45° C. 30 minutes, stable two months at room temperature
quantity-name: Maximum solubility of the UV-screening agent (w/w %)

CCCCC(CC)COc1ccc(-c2nc(-c3ccc(OC)cc3)nc(-c3ccc(OCC(CC)CCCC)cc3O)n2)c(O)c1 (centres unmarked) [UV-screening agent No. 8]    1
Cc1cc(CC(C)C[Si](C)(O[Si](C)(C)C)O[Si](C)(C)C)c(O)c(-n2nc3ccccc3n2)c1 (centres unmarked) [UV-screening agent No. 2, Drometrizole Trisiloxane]    5
COc1ccc(C(=O)CC(=O)c2ccc(C(C)(C)C)cc2)cc1 [UV-screening agent No. 1, Butylmethoxydibenzoylmethane]    1

---

# assay-name: Maximum solubility of UV-screening agents in compound (B)/isododecane mixtures
# Assay type: physicochemical
# measurement-setup: in compound (B2) at 50% by weight in isododecane; sonication 45° C. 30 minutes, stable two months at room temperature
quantity-name: Maximum solubility of the UV-screening agent (w/w %)

Some entries whose results are on file:
CCCCC(CC)COc1ccc(-c2nc(-c3ccc(OC)cc3)nc(-c3ccc(OCC(CC)CCCC)cc3O)n2)c(O)c1 (centres unmarked) [UV-screening agent No. 8]    5
Cc1cc(CC(C)C[Si](C)(O[Si](C)(C)C)O[Si](C)(C)C)c(O)c(-n2nc3ccccc3n2)c1 (centres unmarked) [UV-screening agent No. 2, Drometrizole Trisiloxane]    30
CCCCCCCCOC(=O)/C(C#N)=C\C=C\N(CC)CC [UV-screening agent No. 4]    5

A. CCCCCCCCOC(=O)/C(C#N)=C\C=C\N(CCO)CCO [UV-screening agent No. 3]
B. COc1ccc(C(=O)CC(=O)c2ccc(C(C)(C)C)cc2)cc1 [UV-screening agent No. 1, Butylmethoxydibenzoylmethane]
q: Between the two listed entries A and B , which has its Maximum solubility of the UV-screening agent at the higher number? Identify your pick by its label.
a: B
(B: 15 w/w %, A: 2.5 w/w %)
